Values from ChEMBL document CHEMBL2203097

- assay_info: AUC in C57 mouse at 50 mg/kg, po
- Format: ADME, organism-based
- Design: dose 50 mg/kg, route oral
- study_conditions: plasma
I'd be grateful if you could share measured AUC for these entries.
Give bare numbers, in ng·h/mL.

CNc1nc(N)nc2nc(-c3ccccc3C(F)(F)F)ccc12 : 8990

Record summary for "CNc1nc(N)nc2nc(-c3c(Oc4ccccc4)cccc3C(F)(F)F)ccc12" : reported AUC = 11000

###

- assay_info: Clearance in C57 mouse at 10 mg/kg, iv
- Format: ADME, organism-based
- Set-up: dose 10 mg/kg, route intravenous
- study_conditions: in vivo
recorded_endpoint: clearance (mL/min/kg)
Answers are plain numbers, in mL/min/kg.

// clearance value for "CNc1nc(N)nc2nc(-c3c(Oc4ccccc4)cccc3C(F)(F)F)ccc12" : 24

###

Assay system UniProt:P18031; read-out recorded as IC50.
Sequence (P18031 whole entry): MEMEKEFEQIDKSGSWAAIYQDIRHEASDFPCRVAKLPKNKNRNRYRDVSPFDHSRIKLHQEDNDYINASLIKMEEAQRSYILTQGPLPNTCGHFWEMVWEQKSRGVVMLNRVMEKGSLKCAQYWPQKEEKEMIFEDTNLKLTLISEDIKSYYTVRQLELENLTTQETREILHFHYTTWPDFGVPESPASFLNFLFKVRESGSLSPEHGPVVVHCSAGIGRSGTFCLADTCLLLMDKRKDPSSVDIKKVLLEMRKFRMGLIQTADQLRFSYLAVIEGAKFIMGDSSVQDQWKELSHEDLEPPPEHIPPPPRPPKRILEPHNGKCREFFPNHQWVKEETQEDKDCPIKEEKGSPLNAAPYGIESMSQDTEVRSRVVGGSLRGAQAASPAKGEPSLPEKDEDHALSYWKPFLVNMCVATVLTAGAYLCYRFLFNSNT
Answers are plain numbers, in nM.

CNc1nc(N)nc2nc(-c3ccc(Cl)cc3Cl)ccc12 : 610
CNc1nc(N)nc2nc(-c3c(Cl)cccc3N3CCCC3)ccc12 : 820
CNc1nc(N)nc2nc(-c3c(F)cccc3N3CCCC3)ccc12 : 620
CNc1nc(N)nc2nc(-c3c(OC)cccc3C(F)(F)F)ccc12 : 560
CNc1nc(N)nc2nc(-c3c(SC)cccc3C(F)(F)F)ccc12 : 350

I have 7 molecules here; please give me IC50 for each one.
1. CNc1nc(N)nc2nc(-c3c(N4CCCCC4)cccc3C(F)(F)F)ccc12
2. CNc1nc(N)nc2nc(-c3ccccc3C(F)(F)F)c(C)cc12
3. CCNc1nc(N)nc2nc(-c3ccccc3C(F)(F)F)ccc12
4. CCCNc1nc(N)nc2nc(-c3ccccc3C(F)(F)F)ccc12
5. CNc1nc(N)nc2nc(-c3cccc(Cl)c3Cl)ccc12
6. CNc1nc(N)nc2nc(-c3c(F)cccc3C(F)(F)F)ccc12
7. CNc1nc(N)nc2nc(-c3cc(Cl)ccc3Cl)ccc12

Data returned:
1. 1350
2. 500
3. 1340
4. 2430
5. 1180
6. 260
7. 960

Report IC50 for every entry below.
1. CNc1nc(N)nc2nc(-c3ccccc3C(F)(F)F)ccc12
2. CNc1nc(N)nc2nc(-c3ccccc3Br)ccc12
3. CNc1nc(N)nc2nc(-c3ccccc3Cl)ccc12
4. Nc1nc(NCCO)c2ccc(-c3ccccc3C(F)(F)F)nc2n1

Data returned:
1. 480
2. 530
3. 1160
4. 1850

###

- assay_info: Oral bioavailability in C57 mouse at 50 mg/kg
- Type: ADME, organism-based
- study_conditions: in vivo
recorded_endpoint: bioavailability (%)
Answers are plain numbers, in %.

CNc1nc(N)nc2nc(-c3ccccc3C(F)(F)F)ccc12 : 66

Now turn to the next molecule.
So, "CNc1nc(N)nc2nc(-c3c(Oc4ccccc4)cccc3C(F)(F)F)ccc12" ? Its bioavailability was 32

###

- assay_info: AUC in C57 mouse at 5 mg/kg, iv
- Assay type: ADME, organism-based
- Design: dose 5 mg/kg, route intravenous
- study_conditions: plasma
recorded_endpoint: AUC (ng·h/mL)
Numbers only, in ng·h/mL.

Lab book: AUC of "CNc1nc(N)nc2nc(-c3ccccc3C(F)(F)F)ccc12" noted as 1370
